- system tested: T1, human EphA4 (Homo sapiens, UniProt P54764)
- T1 construct: made in house; not restated for the human SEAP-His protein
- T1 sequence (P54764 20-547): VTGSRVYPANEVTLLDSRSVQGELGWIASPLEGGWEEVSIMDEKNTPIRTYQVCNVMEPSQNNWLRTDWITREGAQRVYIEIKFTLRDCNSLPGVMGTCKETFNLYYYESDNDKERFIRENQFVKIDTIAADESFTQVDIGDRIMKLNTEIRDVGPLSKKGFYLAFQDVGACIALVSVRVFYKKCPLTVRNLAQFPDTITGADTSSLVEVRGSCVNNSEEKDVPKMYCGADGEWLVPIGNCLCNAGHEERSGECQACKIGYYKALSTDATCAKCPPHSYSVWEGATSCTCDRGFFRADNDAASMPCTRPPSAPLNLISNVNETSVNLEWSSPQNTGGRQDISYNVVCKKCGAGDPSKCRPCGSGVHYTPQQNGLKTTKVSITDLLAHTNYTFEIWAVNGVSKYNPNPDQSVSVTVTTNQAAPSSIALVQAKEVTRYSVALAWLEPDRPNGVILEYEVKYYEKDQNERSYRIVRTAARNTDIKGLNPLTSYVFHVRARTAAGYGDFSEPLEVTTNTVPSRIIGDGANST
- assay info: Selectivity ELISA of humanized antibodies for human Eph receptor
- Format: binding
- condition context: coated protein 1 nM; reference set to 100%
measure name: hEphA4-SEAP-: absorbance at 450 nm, percentage with respect to hEphA4-SEAP-His as 100% (%)
Numbers only here, please. The scale is %.

q: Please look up its hEphA4-SEAP-: absorbance at 450 nm, percentage with respect to hEphA4-SEAP-His as 100%: 76 (antibody, V domains shown, synthetic humanized antibody heavy chain variable region sequence; synthetic humanized antibody light chain variable region sequence) VH: QVQLVQSGSELKKPGASVKVSCKASGYTFTDYSMHWVRQAPGQGLKWMGWINTETGEPTYAQGFTGRFVFSLDTSVSTAYLQISSLKAEDTAVYYCARIPLYYYGSRYWYFDVWGQGTTVTVSS VL: DIQMTQSPSSLSASVGDRVTITCRASENIYRNLAWYQQKPGKAPKLLVYAATNLADGVPSRFSGSGSGTDYTLTISSLQPEDFATYYCQHFWGTPWTFGQGTKVEIK
a: 100
